protocolNotes: Binding affinity to wild type HIV-1 NL4-3 CA-SP1 cleavage site of Gag-Pol protein assessed as inhibition of HIV-1 maturation in presence of human serum albumin
Parameters: species or system Human immunodeficiency virus 1
Below: a set of entries, each annotated with reported log10 EC50.
Values reflect log10 of reported EC50 (nM).

>  <compound>
C=C(C)[C@@H]1CC[C@]2(C(=O)O)CC[C@]3(C)[C@H](CC[C@@H]4[C@@]5(C)CC=C(c6ccc(C(=O)O)cc6Cl)C(C)(C)[C@@H]5CC[C@]43C)[C@@H]12

>  <log10 EC50>
2.07

$$$$
>  <compound>
C=C(C)[C@@H]1CC[C@]2(C(=O)O)CC[C@]3(C)[C@H](CC[C@@H]4[C@@]5(C)CC=C(c6ccc(C(=O)O)cc6C)C(C)(C)[C@@H]5CC[C@]43C)[C@@H]12

>  <log10 EC50>
2.82

$$$$
>  <compound>
C=C(C)[C@@H]1CC[C@]2(NCCN3CCS(=O)(=O)CC3)CC[C@]3(C)[C@H](CC[C@@H]4[C@@]5(C)CC=C(c6ccc(C(=O)O)c(F)c6)C(C)(C)[C@@H]5CC[C@]43C)[C@@H]12

>  <log10 EC50>
1.11

$$$$
>  <compound>
C=C(C)[C@@H]1CC[C@]2(C(=O)NCCNC(C)=O)CC[C@]3(C)[C@H](CC[C@@H]4[C@@]5(C)CC=C(c6ccc(C(=O)O)cc6)C(C)(C)[C@@H]5CC[C@]43C)[C@@H]12

>  <log10 EC50>
1.34

$$$$

Measured log10 EC50, C=C(C)[C@@H]1CC[C@]2(C(=O)NCCC(=O)O)CC[C@]3(C)[C@H](CC[C@@H]4[C@@]5(C)CC=C(c6ccc(C(=O)O)cc6)C(C)(C)[C@@H]5CC[C@]43C)[C@@H]12 : 2.65

Measured log10 EC50, C=C(C)[C@@H]1CC[C@]2(NCCN3CCS(=O)(=O)CC3)CC[C@]3(C)[C@H](CC[C@@H]4[C@@]5(C)CC=C(c6ccc(C(=O)O)cc6)C(C)(C)[C@@H]5CC[C@]43C)[C@@H]12 [BMS-955176] : 1.00

Measured log10 EC50, C=C(C)[C@@H]1CC[C@]2(CNCCN(C)C)CC[C@]3(C)[C@H](CC[C@@H]4[C@@]5(C)CC=C(c6ccc(C(=O)O)cc6)C(C)(C)[C@@H]5CC[C@]43C)[C@@H]12 : 0.95

Measured log10 EC50, C=C(C)[C@@H]1CC[C@]2(C(=O)O)CC[C@]3(C)[C@H](CC[C@@H]4[C@@]5(C)CC=C(c6ccc(C(=O)O)cc6F)C(C)(C)[C@@H]5CC[C@]43C)[C@@H]12 : 1.70

* * *

protocolNotes: Aqueous solubility of the compound
Format: physicochemical
endpointLabel: solubility

>  <structureString>
C=C(C)[C@@H]1CC[C@]2(C(=O)O)CC[C@]3(C)[C@H](CC[C@@H]4[C@@]5(C)CC[C@H](OC(=O)CC(C)(C)C(=O)O)C(C)(C)[C@@H]5CC[C@]43C)[C@@H]12

>  <solubility>
< 1 µg/mL

$$$$

Measured solubility, C=C(C)[C@@H]1CC[C@]2(NCCN3CCS(=O)(=O)CC3)CC[C@]3(C)[C@H](CC[C@@H]4[C@@]5(C)CC=C(c6ccc(C(=O)O)cc6)C(C)(C)[C@@H]5CC[C@]43C)[C@@H]12 : < 1 µg/mL
